assay summary: Retention time of the compound up to by LC/MS analysis
Type: physicochemical

- item smiles: "CC(=O)O[C@H]1C(=O)[C@]2(C)[C@@H](O[Si](OC(C)C)(OC(C)C)OC(C)C)C[C@H]3OC[C@@]3(OC(C)=O)[C@H]2[C@H](OC(=O)c2ccccc2)[C@]2(O)C[C@H](OC(=O)[C@H](O)[C@@H](NC(=O)c3ccccc3)c3ccccc3)C(C)=C1C2(C)C"
  Retention_time (min): 16.4
- item smiles: "CCO[Si](OCC)(OCC)O[C@@H](C(=O)O[C@H]1C[C@@]2(O)[C@@H](OC(=O)c3ccccc3)[C@@H]3[C@]4(OC(C)=O)CO[C@@H]4C[C@H](O)[C@@]3(C)C(=O)[C@H](O)C(=C1C)C2(C)C)[C@@H](NC(=O)OC(C)(C)C)c1ccccc1"
  Retention_time (min): 14.1
- item smiles: "CC(=O)O[C@H]1C(=O)[C@]2(C)[C@@H](O[Si](OC(C)C)(OC(C)C)OC(C)C)C[C@H]3OC[C@@]3(OC(C)=O)[C@H]2[C@H](OC(=O)c2ccccc2)[C@]2(O)C[C@H](OC(=O)[C@H](O[Si](OC(C)C)(OC(C)C)OC(C)C)[C@@H](NC(=O)c3ccccc3)c3ccccc3)C(C)=C1C2(C)C"
  Retention_time (min): 18.9
- item smiles: "CCO[Si](OCC)(OCC)O[C@H]1C[C@H]2OC[C@@]2(OC(C)=O)[C@H]2[C@H](OC(=O)c3ccccc3)[C@]3(O)C[C@H](OC(=O)[C@H](O[Si](OCC)(OCC)OCC)[C@@H](NC(=O)c4ccccc4)c4ccccc4)C(C)=C([C@@H](OC(C)=O)C(=O)[C@]12C)C3(C)C"
  Retention_time (min): 16.6
